- measurementTarget: T1, human Calcitonin Gene-Related Peptide (CGRP) (human, not fully specified)
- T1 peptide: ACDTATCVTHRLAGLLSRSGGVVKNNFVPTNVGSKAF
- testSummary: cell-based or functional assay
attributeMeasured: SK-N-MC IC50 (pM)
Give your result in pM as a bare value.

1) REMD 128 (antibody, human IgG4 S228P, kappa, V domains shown, Humanized full-length IgG (IgG4 constant region, kappa); also called IgG 10 (H3/L2); 10 (H3/L2)) VH: QVQLVQSGAEVVKPGASVKVSCKASGYTFTDYYMNWVKQAPGQGLEWIGDVNPNNGGTHYNQKFKGRVTLTVDTSISTAYMELSRLRSDDTAVYYCASITIVPVYFDFWGQGTLVTVSS VL: DIQLTQSPSFLSASVGDRVTITCKASQNVGPNVAWYRQKPGKAPKALIYSASYRYSGVPSRFSGSGSGTEFTLTISSLQPEDFATYICQQYNYYPYTFGQGTKLEIKR	49.2

Q: Quick one: SK-N-MC IC50 (pM) for murine-human chimeric IgG4 derived from murine antibody A3 (antibody, V domains shown, also called chimeric antibody) VH: EVQLQQSGPELVKPGASVKISCKASGYTFTDYYMNWVKQSHGKSLEWIGDVNPNNGGTHYNQKFKGKATLTVDKSSSTAYMELRSLTSEDSAVYYCASITIVPVYFDFWGQGTTLTVSS VL: DIVMTQSQKFMSTSVGDRVSVTCKASQNVGPNVAWYRQKPGQSPKALIYSASYRYSGVPDRFTGSGSGTDFTLTISNVQSEDLADYICQQYNYYPYTFGGGTKLEIKR ?
Result: 152

Q: Quick one: SK-N-MC IC50 (pM) for REMD 128.3 (antibody, human IgG4 S228P, kappa, V domains shown, Humanized full-length IgG (IgG4 constant region, kappa); also called IgG 14 (H4/L2); 14 (H4/L2)) VH: QVQLVQSGAEVVKPGASVKISCKASGYTFTDYYMNWVKQAPGQGLEWIGDVNPNNGGTHYNQKFKGRATLTVDTSISTAYMELSRLRSDDTAVYYCASITIVPVYFDFWGQGTLLTVSS VL: DIQLTQSPSFLSASVGDRVTITCKASQNVGPNVAWYRQKPGKAPKALIYSASYRYSGVPSRFSGSGSGTEFTLTISSLQPEDFATYICQQYNYYPYTFGQGTKLEIKR ?
Result: 59.8
